Biological target: T1, LILRB2 chimeric receptor on LILRB2 reporter cells (extracellular domain of LILRB2 fused with … (UniProt Q8N423 22-460))
T1 construct: extracellular domain;domain: transmembrane/intracellular domains; associates with DAP12; also called LILRB2-expressing reporter cells
Assay: flow cytometry, LILRB2 reporter cells
Property Name: % of cells anti-hIgG APC+ (%)

| Binder | Quantitative Result |
| --- | --- |
| B2-15 (antibody, V domains shown, also called B-15; B2-15_HC) VH: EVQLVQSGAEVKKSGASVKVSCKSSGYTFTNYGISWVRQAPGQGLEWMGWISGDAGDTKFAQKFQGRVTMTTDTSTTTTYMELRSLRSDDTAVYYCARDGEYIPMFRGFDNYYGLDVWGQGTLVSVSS VL: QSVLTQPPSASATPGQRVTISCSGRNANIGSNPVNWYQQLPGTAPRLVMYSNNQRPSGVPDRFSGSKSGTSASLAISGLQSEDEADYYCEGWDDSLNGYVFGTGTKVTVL | 94.3 |
| B2-11 (antibody, V domains shown, also called B2-11_HC; B2-11_LC) VH: QVQLQQSGPGLVKPSQTLSLTCAISGDSVSSNSAAWNWIRQSPSRGLEWLGRTYYRSKWYNDYAVSVKSRITINPDTSKNQFSLQLNSVTPEDTAVYYCARQDESAADDAFDIWGQGTLVIVSS VL: QSVLTQPPSASGTPGQRVTISCSGSKSNVGNNFVHWYQQLPGTAPKLLLYSNLERSSGVPERFSGSKSGTSAYLAISGLRSDDEADYYCAAWDDSLPGWVFGGGTKLTVL | 0.28 |
| B2-16 (antibody, V domains shown, also called B2-16_HC; B2-16_LC) VH: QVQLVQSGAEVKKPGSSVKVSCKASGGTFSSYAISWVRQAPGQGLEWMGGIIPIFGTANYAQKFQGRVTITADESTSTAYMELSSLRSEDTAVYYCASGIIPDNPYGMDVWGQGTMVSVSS VL: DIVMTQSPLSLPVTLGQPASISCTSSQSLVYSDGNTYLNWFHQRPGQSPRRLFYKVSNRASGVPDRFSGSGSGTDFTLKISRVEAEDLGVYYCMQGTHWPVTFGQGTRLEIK | 95 |
